Parameter IC50: see the listing below.
- experimental_target: endogenous CGRP receptor (Homo sapiens, UniProt O60894+Q16602)
- Sequence (Q16602 23-461): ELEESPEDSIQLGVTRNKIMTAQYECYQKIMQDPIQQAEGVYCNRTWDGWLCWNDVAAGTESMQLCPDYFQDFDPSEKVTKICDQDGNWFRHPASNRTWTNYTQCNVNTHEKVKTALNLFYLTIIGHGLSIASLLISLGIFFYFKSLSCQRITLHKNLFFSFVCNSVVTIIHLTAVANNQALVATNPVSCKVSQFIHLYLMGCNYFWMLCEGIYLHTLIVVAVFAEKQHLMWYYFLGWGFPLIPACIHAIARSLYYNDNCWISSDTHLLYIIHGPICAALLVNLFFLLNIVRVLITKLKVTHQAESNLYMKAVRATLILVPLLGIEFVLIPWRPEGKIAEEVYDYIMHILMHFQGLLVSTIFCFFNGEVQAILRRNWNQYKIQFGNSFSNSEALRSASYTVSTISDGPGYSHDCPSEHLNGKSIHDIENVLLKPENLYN
- Sequence (O60894 27-148): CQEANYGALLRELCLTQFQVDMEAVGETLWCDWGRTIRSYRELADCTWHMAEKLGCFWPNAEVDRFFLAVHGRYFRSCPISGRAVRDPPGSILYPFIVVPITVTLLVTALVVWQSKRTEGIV
- assay_comment: CGRP functional antagonism using SK-N-MC-BLA (4C10), β-lactamase transcriptional reporter assay
- test_conditions: SK-N-MC (4C10) cells, inhibition of β-lactamase expression in the presence of 200 pM CGRP
- Method: Measuring CGRP Functional Antagonism Using SK-N-MC-BLA (4C10): CGRP functional antagonism was characterized in a cell based transcriptional assay using a recombinant SK-N-MC line. […] Single clones were separated using Fluorescent Activated Cell Sorting (FACS) based on CGRP induced β-lactamase activity. β-lactamase activity was measured using a fluorescence energy transfer (FRET) dye, CCF4. […]

Task item: Given CC(C)CCN1C(=O)C(CC(=O)N2CCC(N3Cc4ccccc4NC3=O)CC2)SC1c1cccc(OC(F)(F)F)c1 (stereo not drawn) , state its recorded IC50.
Reply: 1000 to 5000 nM

Task item: Given CC(C)(C)CCN1C(=O)[C@H](CC(=O)N2CCC(N3CCc4ccccc4NC3=O)CC2)SC1c1cccc(F)c1N1CCC(N2CCCCC2)CC1 (stereo partly drawn) [Compound 439] , state its recorded IC50.
Reply: < 1000 nM

Task item: Given CC(C)CCN1C(=O)C(CC(=O)N2CCC(N3Cc4ccccc4NC3=O)CC2)SC1c1cc(C(F)(F)F)ccc1F (stereo not drawn) , state its recorded IC50.
Reply: < 1000 nM

* * *

- experimental_target: endogenous CGRP receptor (Homo sapiens, UniProt O60894+Q16602)
- assay_comment: CGRP functional antagonism using SK-N-MC-BLA (4C10), β-lactamase transcriptional reporter assay
- test_conditions: SK-N-MC (4C10) cells, inhibition of β-lactamase expression in the presence of 200 pM CGRP
pIC50: −log10 of the molar value.
Parameter pIC50: see the listing below.

compound: CC(C)CCN1C(=O)C(CC(=O)N2CCC(n3cc(-c4ccccc4)[nH]c3=O)CC2)SC1c1ccc(Cl)cc1 (stereo not shown) [Compound 112]
pIC50: < 5.30

Task item: Given CC(C)CC1SC(CC(=O)N2CCC(N3CCc4ccccc4NC3=O)CC2)C(=O)N1CCc1ccncc1 (stereo not shown) [Compound 245] , state its recorded pIC50.
Reply: < 5.30

Task item: Given CN1CCN(c2ccccc2C2SC(CC(=O)N3CCC(c4cc5ccccc5[nH]c4=O)CC3)C(=O)N2CCC(C)(C)C)CC1 (stereo not shown) [Compound 303] , state its recorded pIC50.
Reply: > 6.00

Task item: Given CC(C)CCN1C(=O)C(CC(=O)N2CCC(N3Cc4ccccc4NC3=O)CC2)SC1c1ccccc1F (stereo not shown) [Compound 170] , state its recorded pIC50.
Reply: > 6.00

Task item: Given CC(C)(C)N1CCN(c2c(F)cccc2C2S[C@@H](CC(=O)N3CCC(n4c(=O)[nH]c5ncccc54)CC3)C(=O)N2CCc2ccc(F)cc2)CC1 (stereo partly shown) [Compound 505] , state its recorded pIC50.
Reply: > 6.00

Task item: Given CC(C)(C)CCN1C(=O)[C@H](CC(=O)N2CCC(N3CCc4ccccc4NC3=O)CC2)SC1c1cnc(C2CCN(C(=O)OC(C)(C)C)CC2)s1 (stereo partly shown) [Compound 492] , state its recorded pIC50.
Reply: 5.30 to 6.00

Task item: Given CC(C)(C)CCN1C(=O)C(CC(=O)N2CCC(N3Cc4ccccc4NC3=O)CC2)SC1c1ccccc1N1CCN(CCO)CC1 (stereo not shown) [Compound 371] , state its recorded pIC50.
Reply: > 6.00
